Listed below: absorption maximum values for each entry.
assay-method-text: solvent given as SMILES
details: in CCO

molecule	absorption maximum / nm
O=P1(c2ccccc2)c2ccccc2-c2sc3ccccc3c21 (stereo not drawn)	329
COc1cc2c(cc1F)c(=O)c1cc(F)c(OC)cc1n2Cc1ccccc1	381
CC[N+](CC)=c1ccc2nc3c(cc(NCCC(=O)NC(C)C(=O)OC)c4ccccc43)oc-2c1 (stereo not drawn)	600
COCc1ncc(-c2c3ccccc3c(-c3cnc(COC)nc3)c3ccccc23)cn1	395
Cc1c(COC(=O)c2ccccc2Cl)n2c(OCC(=O)c3ccccc3Cl)c(C)c(=O)n2c1=O	381
CC(C)(C)Nc1cc(F)c(C(=O)c2cc(F)c(NC(C)(C)C)cc2F)cc1F	348
CCCCOc1c(C=C2N(C)c3ccccc3C2(C)C)c(=O)c1=S	500
CCCCCCCN1C(=CC2=C([O-])C(=CC3=[N+](CCCCCCC)c4ccccc4C3(C)C)C2=C(C#N)C#N)Sc2ccccc21	681
COC(=O)C(Cc1ccc2oc(-c3ccc(-n4c5ccccc5c5ccccc54)cc3)nc2c1)NC(=O)OC(C)(C)C (stereo not drawn)	340.48
CC(C)Nc1cc2sc3cc(NC(C)C)c(F)cc3c(=O)c2cc1F	377
c1ccc2c(-n3c4ccccc4c4ccccc43)cccc2c1	325
CCCCCCCCCCCCCCCC[n+]1ccc(/C=C/c2ccccc2O)cc1	518.9
N#Cc1cnc(-c2c3ccccc3cc3ccccc23)nc1	382
O=c1c2cc(F)c(O)cc2oc2cc(O)c(F)cc12	369
c1ccc2cc(-n3c4ccccc4c4ccccc43)ccc2c1	320
Cc1ccccc1-c1c2ccc(=[N+]3CCCCC3)cc-2oc2cc(N3CCCCC3)ccc12	564
Nc1ccc2c(-c3ccccc3C(=O)[O-])c3ccc(=[NH2+])cc-3oc2c1	499
CCCCN1C(=O)C(=C/C=C/C=C/C=C2N(CCCC)c3ccccc3N2CCCC)C(=O)N(CCCC)C1=S	492
Cn1nc(-c2ccccc2)c2n[nH]nc2/c1=N\c1ccccn1	382
Nc1cc(F)c(C(=O)c2cc(F)c(F)cc2F)cc1F	335
Cc1ccc(/C=C/c2ccccc2-[n+]2noc([O-])c2C)cc1	312
COc1ccc(C#Cc2nc3ccccc3nc2-c2cn(C)c3ccccc23)cc1	415
CSc1sc(C(=O)c2ccccc2)c2nn[nH]c(=O)c12	400
CN(C)c1ccc2c(-c3ccc(C(=O)[O-])cc3C(=O)[O-])c3ccc(=[N+](C)C)cc-3oc2c1	540
Nc1cc2nc3cc(Cl)c(Cl)cc3nc2cc1N	442
O=c1ccc2cc3ccoc3cc2o1	299
C/N=N/C	340
Nc1ccc2c(C(F)(F)F)cc(=O)oc2c1	383
CCCCCCCCCCCCCCCC[n+]1ccc(/C=C(\C)c2ccccc2)cc1	399.5
COc1ccc(-n2nc(C(=O)N3CCCC3)c(N3CCCC3)n2)cc1	328
N#Cc1ccc(N)cc1	276
CCOC(=O)c1cc(C(=O)OCC)c2cc(C(=O)O)ccc2n1	316
COc1ccc2c(-c3nc(-c4cccc(Br)c4)no3)cc(=O)oc2c1	259
CCN(CC)c1cc(F)c(C(=O)c2cc(F)c(F)cc2F)cc1F	361
O=C([O-])c1ccccc1C1=c2cc3c4c(c2Oc2c1cc1c5c2CCCN5CCC1)CCC[N+]=4CCC3	564
OB(O)c1ccc(-c2ccc(N(c3ccccc3)c3ccccc3)cc2)cc1	329.6
S=C1CCCCC1	495
CC1(C)C(/C=C/C=C/c2cc3ccc(O)cc3oc2=O)=[N+](CCCS(=O)(=O)[O-])c2ccc(S(=O)(=O)O)cc21	508
Oc1ccccc1/N=C/c1ccccc1Oc1ccccc1	350
COc1ccc(-c2csc(/C(C#N)=N\Nc3ccc(C#N)cc3)n2)cc1	403
CCOC(=O)CSc1nc(-c2ccccc2)c(C)c(C#N)c1C#N	367
CCOC(=O)c1ccccc1-c1c2ccc(=O)cc-2oc2cc(OC(=O)[C@H](CSCc3ccc(C)cc3)NC(=O)OC(C)(C)C)ccc12	435
Cc1cc(C2(c3cc(C)c(O)c(Br)c3)OS(=O)(=O)c3ccccc32)cc(Br)c1O	414

Cited source: the Deep4Chem optical property database
